pKi: −log10 of the molar value.
Observed pKi values for UniProtKB Q08881 are listed in what follows.
Sequence (Q08881 whole entry, species assumed): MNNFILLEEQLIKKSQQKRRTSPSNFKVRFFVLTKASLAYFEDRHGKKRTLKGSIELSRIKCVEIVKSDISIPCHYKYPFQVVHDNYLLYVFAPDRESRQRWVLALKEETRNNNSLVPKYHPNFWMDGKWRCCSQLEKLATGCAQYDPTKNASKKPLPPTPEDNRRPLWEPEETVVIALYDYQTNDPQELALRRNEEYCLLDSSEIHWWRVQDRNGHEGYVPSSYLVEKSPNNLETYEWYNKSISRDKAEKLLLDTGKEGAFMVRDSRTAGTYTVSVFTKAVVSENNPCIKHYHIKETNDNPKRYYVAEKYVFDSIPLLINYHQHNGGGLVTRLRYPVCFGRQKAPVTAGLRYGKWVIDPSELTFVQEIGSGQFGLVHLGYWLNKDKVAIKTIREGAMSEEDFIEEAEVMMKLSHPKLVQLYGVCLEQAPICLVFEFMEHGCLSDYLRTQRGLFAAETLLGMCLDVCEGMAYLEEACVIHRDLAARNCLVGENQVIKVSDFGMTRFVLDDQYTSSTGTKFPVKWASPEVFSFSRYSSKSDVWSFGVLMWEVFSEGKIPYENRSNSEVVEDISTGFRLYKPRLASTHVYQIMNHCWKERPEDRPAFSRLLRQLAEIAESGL

# COMPOUND, SYSTEM NAME, pKi
data = [
    ("CS(=O)(=O)Nc1cccc(-c2cnc3c(-c4ccccn4)c(N)nn3c2)c1 [Compound V-18]", "UniProtKB Q08881", "> 6.30"),
    ("Nc1nn2cc(-c3ccc(N4CCCCC4)nc3)cnc2c1-c1ccccn1 [Compound V-147]", "UniProtKB Q08881", "5.30 to 6.30"),
    ("CNc1cc(-c2c(N)nn3cc(-c4ccncc4)cnc23)ncn1 [Compound V-181]", "UniProtKB Q08881", "> 6.30"),
]

Assay UniProtKB Q08881, sample NC1NN2C=C(c3cccc(CN4CC[C@@H](N)C4)c3)C=NC2=C1c1ccccn1 (some centres unmarked) [Compound V-226] , pKi read: > 6.30

pKi of Nc1nn2cc(-c3ccc(C(=O)N4CCC[C@@H]4CN4CCCC4)cn3)cnc2c1-c1ccccn1 [Compound V-153] , assay on UniProtKB Q08881, is > 6.30

Response field pKi (UniProtKB Q08881) for item Cc1cnc2c(-c3cc(N4CCC(NC(=O)C(F)(F)F)C4)ncn3)c(N)nn2c1 (centres unmarked) [Compound V-343] : 5.30 to 6.30

Measured pKi (UniProtKB Q08881), entry CC(C)CNC(=O)c1cnc2c(-c3ccccn3)c(N)nn2c1 [Compound V-205] : 5.30 to 6.30

The observed pKi for CNC(=O)c1cccc(-c2cnc3c(-c4ccccn4)c(N)nn3c2)n1 [Compound V-118] when tested with UniProtKB Q08881 stands at 5.30 to 6.30

* * *

Target chain: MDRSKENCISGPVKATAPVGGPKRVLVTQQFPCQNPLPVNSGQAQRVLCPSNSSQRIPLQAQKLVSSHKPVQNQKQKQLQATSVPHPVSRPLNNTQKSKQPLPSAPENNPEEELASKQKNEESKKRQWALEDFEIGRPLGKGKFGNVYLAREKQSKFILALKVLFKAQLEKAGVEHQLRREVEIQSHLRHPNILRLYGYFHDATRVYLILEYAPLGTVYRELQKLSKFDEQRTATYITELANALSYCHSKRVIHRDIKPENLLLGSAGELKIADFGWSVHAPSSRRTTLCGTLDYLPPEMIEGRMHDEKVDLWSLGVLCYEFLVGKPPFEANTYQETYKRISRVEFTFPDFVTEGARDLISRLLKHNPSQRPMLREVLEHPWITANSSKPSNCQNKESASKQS
pKi: −log10 of the molar value.
Overview of reported pKi across a group of molecules:

Solved entries:
# MOLECULE, MEASUREMENT NAME, OBSERVED RESULT
rows = [
    ("COCCN(C)C(=O)c1ccc(-c2cnc3c(-c4ccccn4)c(N)nn3c2)nc1 [Compound V-75]", "pKi", "> 6.30"),
    ("CC[C@H](C)Nc1cc(-c2c(N)nn3cc(C)cnc23)ncn1 [Compound V-294]", "pKi", "5.30 to 6.30"),
    ("CCOC(=O)N1CCN(C(=O)c2ccc(-c3cnc4c(-c5ccccn5)c(N)nn4c3)nc2)CC1 [Compound V-76]", "pKi", "> 6.30"),
    ("CN(CCC#N)C(=O)c1cccc(-c2cnc3c(-c4ccccn4)c(N)nn3c2)n1 [Compound V-114]", "pKi", "5.30 to 6.30"),
    ("CCN(CC)CCN(C)c1ccc(-c2cnc3c(-c4ccccn4)c(N)nn3c2)cn1 [Compound V-173]", "pKi", "5.30 to 6.30"),
]

Please fill in: pKi reported for NC1NN2C=C(c3cccc(CN4CCCNCC4)c3)C=NC2=C1c1ccccn1 (centres unmarked) [Compound V-228] = 5.30 to 6.30

Consider COc1ccc(-c2cn3nc(N)c(-c4ccccn4)c3nc2C)cc1 [Compound V-216] . Its measured pKi is 5.30 to 6.30

pKi measured on CCCN(CCO)C(=O)c1ccc(-c2cnc3c(-c4ccccn4)c(N)nn3c2)nc1 [Compound V-92] = > 6.30
